# credit: PubChem BioAssay AID1645864

Record form. Attribute: IC50. Fill in for each entry.
- measurementTarget: Ubiquitin carboxyl-terminal hydrolase 17-like protein 5 (Homo sapiens)
- experimentNotes: ubiquitin-specific protease 17 DUB inhibitors, concentration-effect assay, cell-free, verification of initial screening actives (AID 1645864)
- recordedConditions: purified USP17, ubiquitin-rhodamine cleavage fluorescence, 3 h
Calls of active or inactive are those of the source.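 How the source made its calls: active means maximal inhibition of USP17 at or above 30% in the confirmation dose-response, a value not among the printed readouts; inactive means the rest.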

Short answer on Ubiquitin carboxyl-terminal hydrolase 17-like protein 5 (Homo sapiens) for Cc1c(C)n(-c2ccccc2)c2ncn(CC(=O)NC(C)c3ccccc3)c(=O)c12 (centres undefined) , IC50: 22.5 µM

Short answer on Ubiquitin carboxyl-terminal hydrolase 17-like protein 5 (Homo sapiens) for CCCn1c(=O)n(CC(=O)c2ccccc2F)c2c(C(N)=O)nc(-c3ccco3)nc21 , IC50: > 50 µM (inactive)

Short answer on Ubiquitin carboxyl-terminal hydrolase 17-like protein 5 (Homo sapiens) for Cc1ccc(Cn2nnc(C(=O)NCc3ccco3)c2-n2cccc2)cc1 , IC50: 42.4 µM

Short answer on Ubiquitin carboxyl-terminal hydrolase 17-like protein 5 (Homo sapiens) for Cc1ccc2c(c1C)NC(=O)[C@]21[C@@H]2C(=O)N(c3cccc(Cl)c3)C(=O)[C@@H]2[C@@H]2CCCN21 , IC50: > 50 µM (inactive)

Short answer on Ubiquitin carboxyl-terminal hydrolase 17-like protein 5 (Homo sapiens) for Cc1sc(NC(=O)/C=C/c2ccco2)nc1-c1ccccc1 , IC50: > 50 µM (inactive)

Short answer on Ubiquitin carboxyl-terminal hydrolase 17-like protein 5 (Homo sapiens) for Cc1ccc2c(=O)c3c([nH]c2c1C)CCN(CC(=O)NCc1ccccc1)C3 , IC50: > 50 µM (inactive)

Short answer on Ubiquitin carboxyl-terminal hydrolase 17-like protein 5 (Homo sapiens) for CC(OC(=O)c1ccc2c(c1)OCCO2)C(=O)NCC1CCCCC1 (centres undefined) , IC50: 30.1 µM

Short answer on Ubiquitin carboxyl-terminal hydrolase 17-like protein 5 (Homo sapiens) for COc1ccc(C(=O)NCCc2nnc3ccc(SCC(=O)NCc4ccc(F)cc4)nn23)cc1 , IC50: 18.5 µM

Short answer on Ubiquitin carboxyl-terminal hydrolase 17-like protein 5 (Homo sapiens) for Cc1ccc(OCCn2c(=N)n(C(C)C)c3ccccc32)cc1 , IC50: > 50 µM (inactive)
